TARGET_OF_ASSAY: T1, 4H3697-AA
T1 chain: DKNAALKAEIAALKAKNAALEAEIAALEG
METHOD_DESCRIPTION: two-hybrid library CCmax;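 also: natural log of median RNA to DNA barcode read ratio; higher means stronger binding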
STUDY_CONDITIONS: mean of both orientations
Response field label: string, one of label 1 (interaction score strictly below -0.6) or label 0.

Examples with answers:
| BINDER | CATEGORY |
| --- | --- |
| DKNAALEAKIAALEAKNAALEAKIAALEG [4H3381-AA] | label 1 |
| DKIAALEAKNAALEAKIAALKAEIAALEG [4H2473-AA] | label 1 |
| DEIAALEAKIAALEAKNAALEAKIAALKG [4H310-AA] | label 0 |

Now, please, on to the next binder.
Q. I wonder whether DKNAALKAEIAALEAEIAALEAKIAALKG [4H3590-AA] has interaction score below -0.6. Can you tell?
A. label 0
